# testedSystem: UniProt O60674
# Sequence (O60674 whole entry): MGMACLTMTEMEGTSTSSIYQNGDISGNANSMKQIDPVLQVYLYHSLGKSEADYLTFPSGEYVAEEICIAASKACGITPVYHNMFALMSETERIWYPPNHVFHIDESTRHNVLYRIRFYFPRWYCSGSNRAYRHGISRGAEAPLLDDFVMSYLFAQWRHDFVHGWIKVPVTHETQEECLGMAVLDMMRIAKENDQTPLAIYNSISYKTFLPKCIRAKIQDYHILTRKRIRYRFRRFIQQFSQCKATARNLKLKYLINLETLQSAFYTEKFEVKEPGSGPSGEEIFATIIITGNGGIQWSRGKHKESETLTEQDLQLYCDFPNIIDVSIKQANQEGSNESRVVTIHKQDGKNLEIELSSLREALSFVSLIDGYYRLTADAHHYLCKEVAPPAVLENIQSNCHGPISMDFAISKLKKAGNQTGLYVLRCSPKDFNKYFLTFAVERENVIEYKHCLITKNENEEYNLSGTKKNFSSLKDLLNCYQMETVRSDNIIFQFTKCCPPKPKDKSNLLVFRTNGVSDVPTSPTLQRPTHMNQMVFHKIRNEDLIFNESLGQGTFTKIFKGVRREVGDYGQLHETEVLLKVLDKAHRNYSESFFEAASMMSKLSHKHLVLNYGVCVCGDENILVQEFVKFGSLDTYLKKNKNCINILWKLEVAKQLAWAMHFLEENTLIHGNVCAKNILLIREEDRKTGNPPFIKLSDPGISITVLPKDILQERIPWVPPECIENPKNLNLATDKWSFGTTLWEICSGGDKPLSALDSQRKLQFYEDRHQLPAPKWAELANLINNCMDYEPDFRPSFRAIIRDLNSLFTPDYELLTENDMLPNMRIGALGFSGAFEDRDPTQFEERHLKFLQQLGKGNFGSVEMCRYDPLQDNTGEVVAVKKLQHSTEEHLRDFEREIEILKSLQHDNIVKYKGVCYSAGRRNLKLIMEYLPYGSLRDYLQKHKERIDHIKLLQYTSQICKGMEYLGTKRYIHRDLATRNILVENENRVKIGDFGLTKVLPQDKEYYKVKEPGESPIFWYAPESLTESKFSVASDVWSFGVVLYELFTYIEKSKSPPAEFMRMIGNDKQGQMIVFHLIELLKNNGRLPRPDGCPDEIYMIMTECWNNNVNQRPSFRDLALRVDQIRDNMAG
# measurementNotes: Inhibition of recombinant GST tagged JAK2 after 60 mins by Caliper mobility shift assay
readout: pIC50
Scale: negative log10 of molar concentration, which is what pIC50 denotes.

Problem: Quick one: pIC50 for COc1cc(Nc2ncc3ccn(-c4ccccn4)c3n2)cc(OC)c1OC ?
Solution: 8.23

Values were extracted from ChEMBL document CHEMBL1155411.
